system: HOP-18 NSCLC; assay: NCI tumour cell line growth inhibition, 48 h
I'd appreciate it if you could supply TGI values for the items below.

Please review the entries below; each comes with its answer.
# molecule, TGI
data = [
    ("CNC(=O)C1CCc2nnc(-c3ccccc3)n21 (stereo unspecified)", "> 100 µM"),
    ("CCCC1N2CCCCC2[C@@H]2c3[nH]c4ccccc4c3CCN12 (stereo partly specified)", "> 100 µM"),
    ("O=S(=O)(O)C1=C2Sc3ccccc3N=C2c2ccccc2C1", "25.2 µM"),
    ("CCC[CH2][Sn]1([CH2]CCC)[O]C(=O)CN=Cc2c(ccc3ccccc23)[O]1", "1.52 µM"),
    ("Cc1cc(Cl)cc2c1NC(=O)C2(O)CC(=O)c1ccco1 (stereo unspecified)", "> 100 µM"),
    ("O/N=C/c1ncccc1C1OCCO1", "> 100 µM"),
    ("CC(=O)OCC1OC(NC(=S)N/N=C2\\CC(c3ccccc3)Oc3ccccc32)C(OC(C)=O)C(OC(C)=O)C1OC(C)=O (stereo unspecified)", "> 100 µM"),
    ("CC(SC(=S)N1CCOCC1)c1cc2oc(=O)n(C)c2cc1Cl (stereo unspecified)", "> 100 µM"),
    ("O=C(CCc1cc(-c2ccccc2)nc(=S)[nH]1)N(Cc1ccccc1)Cc1ccccc1", "> 100 µM"),
    ("Cc1cc(N(CCC#N)CCC#N)ccc1/C=C1\\N=C(c2cc([N+](=O)[O-])ccc2Cl)N(c2cccc(Cl)c2)C1=O", "> 100 µM"),
]

Now consider the entry below.
Which TGI value belongs to Nc1cccc(S(=O)(=O)NCC(=O)O)c1 ?
> 100 µM

====

test system: M14 melanoma; assay: NCI tumour cell line growth inhibition, 48 h; in the data active means GI50 below about 0.43 µM; inactive means the rest
Respond with a class label; see active, inactive

# smiles-entry, class-assignment
rows = [
    ("COc1cc2cc(Oc3ccc(NC(=O)Nc4ccc(Cl)c(C(F)(F)F)c4)cc3)c(C)nc2cc1OCCN1CCOCC1", "inactive"),
    ("CCC[CH2][Sn]1([CH2]CCC)[O]C(=O)CN=Cc2c(ccc3ccccc23)[O]1", "active"),
]

Consider the record given below.
What did the test return for C=C(C[C@](O)(C(=O)/C=C/c1ccc(Cl)cc1)C(=O)OC)c1ccccc1 ?
inactive

====

test system: SNB-19 CNS; test: NCI tumour cell line growth inhibition, 48 h
readout-kind: GI50

Please review the entries below; each comes with its answer.
# compound, GI50
records = [
    ("Nc1nc(N(Cc2ccccc2)c2ccccc2)c2cn[nH]c2n1", "> 100 µM"),
    ("CCCCCCCC(=O)OCC/C=C/C1OC1C1OC(=O)/C=C\\C=C\\c2nc(oc2C)/C=C(/C)CCC2OC2C1OC(=O)NC(C)=O (centres undefined)", "0.0605 µM"),
    ("O=S(=O)(NC1=NCCN1C(=S)SN1CCn2c1nsc2=S)c1cccc(Cl)c1", "19.1 µM"),
]

Now consider the entry below.
Which GI50 value belongs to Nc1nccc(-c2c(-c3ccc(F)cc3)ncn2C2CCC(O)CC2)n1 (centres undefined) ?
15.6 µM

====

tested on: OVCAR-8 ovarian; test: NCI tumour cell line growth inhibition, 48 h
I'd appreciate it if you could supply TGI values for the items below.

Please review the entries below; each comes with its answer.
# molecule, test-system, TGI
records = [
    ("O=C(N/N=C/C=C/c1ccccc1)[C@H](O)[C@@H](O)C(=O)N/N=C/C=C/c1ccccc1", "OVCAR-8 ovarian", "> 100 µM"),
    ("CC1CN1C(=O)NCCCCCCNC(=O)N1CC1C (stereo unspecified)", "OVCAR-8 ovarian", "> 100 µM"),
    ("O=C(O)CCCn1nnc2c(=O)[nH][nH]c(=O)c21", "OVCAR-8 ovarian", "> 100 µM"),
    ("COc1cc2ncn(-c3cc(OCc4cccs4)c(C(N)=O)s3)c2cc1OC", "OVCAR-8 ovarian", "> 17 µM"),
    ("O=C1N=C(SC2OC(CO)C(O)C(O)C2O)S/C1=C\\c1ccccc1 (stereo unspecified)", "OVCAR-8 ovarian", "> 100 µM"),
    ("CC(=O)O[C@H]1C(=O)[C@@]2(C)C(C(OC(=O)c3ccccc3)[C@]3(O)CC(OC(=O)[C@H](OC(=O)CCC(=O)O)C(NC(=O)c4ccccc4)c4ccccc4)C(C)=C1C3(C)C)C1(OC(C)=O)COC1C[C@@H]2O (stereo partly specified)", "OVCAR-8 ovarian", "> 100 µM"),
    ("CCCC/C=C/C/C=C/CCCCCCCCC(=O)OCC1CCCN2CCCCC12 (stereo unspecified)", "OVCAR-8 ovarian", "> 100 µM"),
    ("C/C(CC(=O)Nc1cc(C)ccc1C)=N\\NC(=O)c1ccncc1", "OVCAR-8 ovarian", "> 100 µM"),
]

Count: 4. Required value per item: TGI.
1. O=C1CCC(N2C(=O)c3ccccc3C2=O)C(=O)N1CO (stereo unspecified)
2. O=C(O)/C=C(\c1nc2ccc([N+](=O)[O-])cc2[nH]1)c1cc(Cl)ccc1O
3. O=C1c2ccccc2C(=O)N1CCc1ncc[nH]1
4. Cc1cc(N(CCC#N)CCC#N)ccc1/C=C1\N=C(c2cc([N+](=O)[O-])ccc2Cl)N(c2cccc(Cl)c2)C1=O

["> 100 µM", "> 100 µM", "> 100 µM", "> 100 µM"]

Count: 8. Required value per item: TGI.
1. Clc1ccccc1-c1nc2ccc(C34CC5CC(CC(C5)C3)C4)cc2[nH]1
2. O=C1c2[nH]c3ccc(Br)cc3c2CCN1Cc1ccc(Cl)cc1
3. CC(C)(C)/C(=N\Nc1nc2ccccc2[nH]1)c1ccccn1
4. O=S(=O)(SC1=NCCN1)c1ccc2ccccc2c1
5. NCCCCC(NC(=O)C(N)Cc1ccc(O)cn1)C(=O)O (stereo unspecified)
6. O=C(O)COCC(=O)N(CCOCCN(Cc1ccccc1)C(=O)COCC(=O)O)Cc1ccccc1
7. CCc1ccccc1NC(=O)C1=C(C)NC(C)=C(C(=O)Nc2ccccc2CC)C1c1ccc2c(c1)OCO2
8. CCOC(=O)/C(=C\c1ccccc1)C(=O)O

22.8 µM
48.5 µM
> 100 µM
40.5 µM
> 100 µM
> 100 µM
> 100 µM
> 100 µM

Which TGI value belongs to OCCCNc1nc(=S)[nH]c2[nH]ncc12 ?
> 100 µM

====

tested on: A498 renal; assay: NCI tumour cell line growth inhibition, 48 h
readout-kind: TGI

Count: 5. Required value per item: TGI.
1. Cc1ccc(NC(=O)CC(=O)n2nc(C)c(N=Nc3ccccc3C(=O)O)c2C)cc1
2. O=C1c2cccc([N+](=O)[O-])c2C(=O)N1c1ncn[nH]1
3. CCOC(=O)N(NC(=O)NC(C)C)c1ccccc1
4. CN(C)/N=C(/CC(O)(C(F)(F)F)C(F)(F)F)c1ccc([N+](=O)[O-])cc1
5. COc1ccc(C(=O)C#Cc2cnc(OC)nc2OC)cc1

> 100 µM
> 100 µM
> 100 µM
> 100 µM
35.1 µM

====

test system: A549 NSCLC; assay: NCI tumour cell line growth inhibition, 48 h; in the data active means GI50 below about 0.43 µM; inactive means the rest
Respond with a class label; see active, inactive

Solved cases below.
# molecule, class-assignment
rows = [
    ("COc1ccc2c(c1)C(=O)c1c-2n(CCCn2ccnc2)c(=O)c2cc([N+](=O)[O-])ccc12", "active"),
    ("CCOC1Oc2ccc(C)cc2C(=O)/C1=C\\Nc1ccc(C(N)=O)cc1 (centres undefined)", "inactive"),
    ("O=C1Nc2ccccc2C1(c1ccc(O)cc1)c1ccc(O)cc1", "inactive"),
    ("Nc1nccc(-c2c(-c3ccc(F)cc3)ncn2C2CCC(O)CC2)n1 (centres undefined)", "inactive"),
    ("O=S(=O)(NC1=NCCN1C(=S)SN1CCn2c1nsc2=S)c1cccc(Cl)c1", "inactive"),
]

What did the test return for O=C(O)/C=C(\c1nc2ccc([N+](=O)[O-])cc2[nH]1)c1cc(Cl)ccc1O ?
inactive

What did the test return for CCCC(=O)OCC1OC(n2cnc3c(=S)nc[nH]c32)C(OC(=O)CCC)C1OC(=O)CCC (centres undefined) ?
inactive

What did the test return for CS(=O)(=O)CCNCc1ccc(-c2ccc3ncnc(Nc4ccc(OCc5ccccc5)cc4)c3c2)o1 ?
inactive

What did the test return for CC/C=C\C[C@H](F)C/C=C1/C(=O)C=C[C@@H]1C/C=C\CCCC(=O)O ?
inactive

====

tested on: PC-3 prostate; test: NCI tumour cell line growth inhibition, 48 h
I'd appreciate it if you could supply TGI values for the items below.

# molecule, test-system, TGI
data = [
    ("COc1ccc(CC2CCc3nc(N)nc(N)c3C2)cc1OC (stereo unspecified)", "PC-3 prostate", "> 100 µM"),
    ("CC[C@@]1(c2ccccc2)C2=C(CC(C)(C)CC2=O)Nc2[nH]ncc21", "PC-3 prostate", "> 100 µM"),
    ("CCCC(=O)OCC1OC(n2cnc3c(=S)nc[nH]c32)C(OC(=O)CCC)C1OC(=O)CCC (stereo unspecified)", "PC-3 prostate", "> 100 µM"),
    ("CCN(CC)CCCC(C)Nc1c2ccc(Cl)cc2nc2ccc(O)cc12 (stereo unspecified)", "PC-3 prostate", "18.5 µM"),
]

Count: 6. Required value per item: TGI.
1. CCOC(=O)c1c(NC(=O)c2cccs2)sc2c1CCC2
2. O=C1CCC2(c3ccccc3)Nc3ccncc3N12 (stereo unspecified)
3. OCCCNc1nc(=S)[nH]c2[nH]ncc12
4. CC1CN1C(=O)NCCCCCCNC(=O)N1CC1C (stereo unspecified)
5. Cc1cc(Cl)cc2c1NC(=O)C2(O)CC(=O)c1ccco1 (stereo unspecified)
6. O=c1oc2ccccc2cc1-c1csc(Nc2ccc(F)cc2)n1

1: > 100 µM; 2: > 10 µM; 3: > 100 µM; 4: > 100 µM; 5: > 100 µM; 6: 19.3 µM

Which TGI value belongs to CCOC(=O)c1cc2c([nH]1)c(O)cc1c2ccn1Cc1ccccc1 ?
34.2 µM
